Source: patent US9556202B2

Observed IC50 for CYP2C9 (Homo sapiens), reported per entry below.

Compound: COCC(c1cncn1[C@H](C)c1ccc(F)cc1)N1CCN(S(=O)(=O)c2cnc(N3CCN(C)CC3)s2)CC1 (single isomer, unassigned)
IC50: > 10 µM

Please turn your attention to the following entry.
Query: Find the measured IC50 of COCCC(c1cncn1[C@H](C)c1ccc(F)cc1)N1CCN(S(=O)(=O)c2cnc(N3CCN(C)CC3)s2)CC1 (single isomer, unassigned) and report it.
Reply: > 10 µM
